Some compounds, each annotated with its measured ED50, analgesic activity in writhing test.
Test system: Kunming mice
Experiment: Acetic acid-induced writhing test
Format: in vivo
Conditions: subcutaneously (S. C); acetic acid 30 minutes after dosing; writhing times in 15 minutes
Please reply with the bare figure in mg/kg and do not write the unit itself.

>>> observed_result("O=C(CN1CCN(c2cccc(Cl)c2Cl)CC1)c1ccccc1")
20
>>> observed_result("COc1ccccc1N1CCN(CC(=O)c2ccccc2)CC1")
15
>>> observed_result("O=C(CN1CCN(c2nc3ccc(Cl)cc3s2)CC1)c1ccccc1")
78
>>> observed_result("O=C(CN1CCN(c2ccccc2Cl)CC1)c1ccccc1")
36
>>> observed_result("COc1ccc2nc(N3CCN(CC(=O)c4ccccc4)CC3)sc2c1")
120

What reported ED50, analgesic activity in writhing test corresponds to Cc1cccc(N2CCN(CC(=O)c3ccccc3)CC2)c1C on Kunming mice?
10

Lab note: need ED50, analgesic activity in writhing test for O=C(CN1CCN(c2cccc(C(F)(F)F)c2)CC1)c1ccccc1 on Kunming mice, anyone have it?
2

Fill in the recorded ED50, analgesic activity in writhing test for this compound, with Kunming mice as test system: COc1ccc(N2CCN(CC(=O)c3ccccc3)CC2)cc1
20

# query: ED50, analgesic activity in writhing test | item Cc1ccc2nc(N3CCN(CC(=O)c4ccccc4)CC3)sc2c1 | system: Kunming mice
100

Give Kunming mice ED50, analgesic activity in writhing test for COc1cccc(N2CCN(CC(=O)c3ccccc3)CC2)c1
2

Param readout = ED50, analgesic activity in writhing test; param system = Kunming mice; param query = O=C(CN1CCN(c2cccc(Cl)c2)CC1)c1ccccc1 ; response: value
18
